system: A549; assay: Euclidean distance of Cell Painting phenotypic profile (signed KS, 77 features) to DMSO centroid (dimensionless distance); 5 or 10 uM (library dependent); higher = stronger phenotypic change vs DMSO (phenoactivity); conditions: 48 h
Parameter measured: Euclidean distance
Respond using a number only.

// below: answered compounds
> print(dat)
                                   compound  reported
1  O=C(O)[C@@H](S)[C@@H](S)C(=O)O [Succimer]      1.41
2  C=C[C@](C)(O)CC[C@@H]1[C@@]2(C)CCCC(C)(C)[C@@H]2CC[C@@]1(C)O [Sclareol]     0.762

## Task GET /values?readout=Euclidean distance&item= CC(C)NCC(O)COc1ccc(CCOCC2CC2)cc1 (centres undefined) [Betaxolol]
## Result 0.384

## Task GET /values?readout=Euclidean distance&item= C[C@@H](OC[C@@]1(c2ccccc2)CC[C@]2(CCC(=O)N2)CN1)c1cc(C(F)(F)F)cc(C(F)(F)F)c1 [Rolapitant]
## Result 1.85
